# target_under_test: Gcr1 (UniProt P07261)
# Sequence: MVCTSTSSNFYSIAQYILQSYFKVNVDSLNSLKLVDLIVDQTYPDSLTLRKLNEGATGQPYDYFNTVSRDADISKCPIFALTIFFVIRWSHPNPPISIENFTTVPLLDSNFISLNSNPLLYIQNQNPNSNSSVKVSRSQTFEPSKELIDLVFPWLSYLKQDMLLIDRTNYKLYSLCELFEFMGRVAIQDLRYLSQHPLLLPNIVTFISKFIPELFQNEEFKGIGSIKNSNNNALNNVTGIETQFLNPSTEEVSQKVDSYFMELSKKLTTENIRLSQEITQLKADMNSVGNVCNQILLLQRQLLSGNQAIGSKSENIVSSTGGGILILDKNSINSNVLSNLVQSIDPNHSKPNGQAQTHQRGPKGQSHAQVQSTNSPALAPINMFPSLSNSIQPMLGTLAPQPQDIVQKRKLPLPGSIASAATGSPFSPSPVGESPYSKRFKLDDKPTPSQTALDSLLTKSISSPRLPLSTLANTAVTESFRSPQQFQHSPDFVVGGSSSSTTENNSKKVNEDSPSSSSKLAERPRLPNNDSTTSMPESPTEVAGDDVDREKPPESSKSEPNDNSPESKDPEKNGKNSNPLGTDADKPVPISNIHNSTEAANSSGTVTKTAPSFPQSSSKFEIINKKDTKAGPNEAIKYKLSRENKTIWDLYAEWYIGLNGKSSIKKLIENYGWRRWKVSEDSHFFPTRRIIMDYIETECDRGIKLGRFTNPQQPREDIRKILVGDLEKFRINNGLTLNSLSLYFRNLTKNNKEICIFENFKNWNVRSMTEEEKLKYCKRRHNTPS
# test_method_notes: PBM E-score (8-mer binding enrichment) (E-score (-0.5 to 0.5)); higher = stronger / more preferred TF binding
# experimental_conditions: protein concentration: 100 nM; construct: GST-full length
The full ranking holds about 33,000 sequences; the median of “E-score (-0.5 to 0.5)” is about -0.011, and the highest 2% start at about 0.28. The list comes from a sample in which the highest values are over-represented; it also holds close analogues and randomly drawn sequences.
Class key for PBM E-score values: band 1: < 0.003; band 2: ≥ 0.003 and < 0.2; band 3: ≥ 0.2

{"columns": ["monomer_sequence", "target_under_test", "category"],
 "data": [
  ["CCAGAAGC", "Gcr1 (UniProt P07261)", "band 3"],
  ["CACTTCCA", "Gcr1 (UniProt P07261)", "band 3"],
  ["ATAGAAGC", "Gcr1 (UniProt P07261)", "band 3"],
  ["AGGGATCG", "Gcr1 (UniProt P07261)", "band 1"],
  ["CAAGACGC", "Gcr1 (UniProt P07261)", "band 3"],
  ["GCAGAAGC", "Gcr1 (UniProt P07261)", "band 2"],
  ["CTAGAAGC", "Gcr1 (UniProt P07261)", "band 2"],
  ["CACTTCCG", "Gcr1 (UniProt P07261)", "band 2"],
  ["AAGATTAA", "Gcr1 (UniProt P07261)", "band 3"],
  ["CCAGAAGA", "Gcr1 (UniProt P07261)", "band 2"],
  ["AGTAGCAT", "Gcr1 (UniProt P07261)", "band 1"],
  ["CTGGTCAA", "Gcr1 (UniProt P07261)", "band 2"],
  ["GCGGAACC", "Gcr1 (UniProt P07261)", "band 3"],
  ["ATTCCTAA", "Gcr1 (UniProt P07261)", "band 3"],
  ["ACCGAGTC", "Gcr1 (UniProt P07261)", "band 1"],
  ["CGGGATCC", "Gcr1 (UniProt P07261)", "band 3"],
  ["GCGCGCCA", "Gcr1 (UniProt P07261)", "band 2"],
  ["CTTCCTAC", "Gcr1 (UniProt P07261)", "band 2"],
  ["CCAGCTGG", "Gcr1 (UniProt P07261)", "band 2"],
  ["GGACAACA", "Gcr1 (UniProt P07261)", "band 1"],
  ["ATTCCTGC", "Gcr1 (UniProt P07261)", "band 2"],
  ["GCGGAACA", "Gcr1 (UniProt P07261)", "band 1"],
  ["CTGTGGGC", "Gcr1 (UniProt P07261)", "band 2"],
  ["CCGGAACG", "Gcr1 (UniProt P07261)", "band 1"],
  ["CGGAATAA", "Gcr1 (UniProt P07261)", "band 1"],
  ["CGTTGCCA", "Gcr1 (UniProt P07261)", "band 2"],
  ["ATTTCGGG", "Gcr1 (UniProt P07261)", "band 2"],
  ["AAGAAGCG", "Gcr1 (UniProt P07261)", "band 2"],
  ["CGGTGCCC", "Gcr1 (UniProt P07261)", "band 3"],
  ["AGCCGTGG", "Gcr1 (UniProt P07261)", "band 1"],
  ["GGGCACAC", "Gcr1 (UniProt P07261)", "band 1"],
  ["AAGAAGCT", "Gcr1 (UniProt P07261)", "band 3"],
  ["CGGTGCCA", "Gcr1 (UniProt P07261)", "band 1"],
  ["TGATGCCA", "Gcr1 (UniProt P07261)", "band 1"],
  ["GCGCACCC", "Gcr1 (UniProt P07261)", "band 1"],
  ["AGCGAGCA", "Gcr1 (UniProt P07261)", "band 1"],
  ["CAAGAAGC", "Gcr1 (UniProt P07261)", "band 3"],
  ["GCTACTCC", "Gcr1 (UniProt P07261)", "band 2"],
  ["CGATGCCA", "Gcr1 (UniProt P07261)", "band 2"],
  ["ATTTCGGA", "Gcr1 (UniProt P07261)", "band 3"],
  ["AGTGTCAG", "Gcr1 (UniProt P07261)", "band 1"],
  ["ACTGGTCC", "Gcr1 (UniProt P07261)", "band 1"],
  ["CGCAACCG", "Gcr1 (UniProt P07261)", "band 3"],
  ["TGGATTAA", "Gcr1 (UniProt P07261)", "band 2"],
  ["CTTCCTAA", "Gcr1 (UniProt P07261)", "band 3"],
  ["ACCAATGG", "Gcr1 (UniProt P07261)", "band 2"],
  ["CTTTCTAC", "Gcr1 (UniProt P07261)", "band 2"],
  ["AATTTGTC", "Gcr1 (UniProt P07261)", "band 1"],
  ["GGGCACGA", "Gcr1 (UniProt P07261)", "band 2"],
  ["GGTTTGAC", "Gcr1 (UniProt P07261)", "band 2"],
  ["CTCACACA", "Gcr1 (UniProt P07261)", "band 2"],
  ["CACTGTAG", "Gcr1 (UniProt P07261)", "band 1"],
  ["CTTGGTTC", "Gcr1 (UniProt P07261)", "band 2"],
  ["ACCTCCAT", "Gcr1 (UniProt P07261)", "band 1"],
  ["GGGCACCA", "Gcr1 (UniProt P07261)", "band 3"],
  ["CGCTTTCA", "Gcr1 (UniProt P07261)", "band 1"],
  ["ACATCTAC", "Gcr1 (UniProt P07261)", "band 1"],
  ["AGGTGCCG", "Gcr1 (UniProt P07261)", "band 3"],
  ["GGTTGCCA", "Gcr1 (UniProt P07261)", "band 3"],
  ["ATTCCTGA", "Gcr1 (UniProt P07261)", "band 3"],
  ["GTCAGGTA", "Gcr1 (UniProt P07261)", "band 2"],
  ["GAAGACGC", "Gcr1 (UniProt P07261)", "band 3"],
  ["AGGCTGGA", "Gcr1 (UniProt P07261)", "band 1"],
  ["TATCCTGA", "Gcr1 (UniProt P07261)", "band 2"],
  ["CGGGATCA", "Gcr1 (UniProt P07261)", "band 3"],
  ["AGGGATCC", "Gcr1 (UniProt P07261)", "band 3"],
  ["AACTTCCG", "Gcr1 (UniProt P07261)", "band 3"],
  ["AGGCACCC", "Gcr1 (UniProt P07261)", "band 3"],
  ["AAACCAAA", "Gcr1 (UniProt P07261)", "band 2"],
  ["CGGCGCCA", "Gcr1 (UniProt P07261)", "band 3"],
  ["TGGCGCAA", "Gcr1 (UniProt P07261)", "band 1"],
  ["ACAGTCCT", "Gcr1 (UniProt P07261)", "band 1"],
  ["AGGTGCCA", "Gcr1 (UniProt P07261)", "band 2"],
  ["AATAGATC", "Gcr1 (UniProt P07261)", "band 1"],
  ["GTGACATA", "Gcr1 (UniProt P07261)", "band 3"],
  ["AGTTTTAT", "Gcr1 (UniProt P07261)", "band 2"],
  ["CTAATTTC", "Gcr1 (UniProt P07261)", "band 2"],
  ["TAGAAACA", "Gcr1 (UniProt P07261)", "band 2"],
  ["CAATTCCA", "Gcr1 (UniProt P07261)", "band 2"],
  ["AAGAAGCA", "Gcr1 (UniProt P07261)", "band 2"],
  ["AGGCACCG", "Gcr1 (UniProt P07261)", "band 2"],
  ["TGGCACCA", "Gcr1 (UniProt P07261)", "band 3"],
  ["AACGTCGC", "Gcr1 (UniProt P07261)", "band 1"],
  ["AGGCAATC", "Gcr1 (UniProt P07261)", "band 1"],
  ["AGGCACTA", "Gcr1 (UniProt P07261)", "band 1"],
  ["AACCTAAG", "Gcr1 (UniProt P07261)", "band 1"],
  ["GACTTCAA", "Gcr1 (UniProt P07261)", "band 1"],
  ["CTCGGTAA", "Gcr1 (UniProt P07261)", "band 1"],
  ["CGGCGCTA", "Gcr1 (UniProt P07261)", "band 1"]
]}

Measured values drawn from the supplement of paper PMC3334620 for this set.
